- target.entity: T1, human IL-36R on cells (human, UniProt Q9HB29 20-575)
- T1 sequence (looked up): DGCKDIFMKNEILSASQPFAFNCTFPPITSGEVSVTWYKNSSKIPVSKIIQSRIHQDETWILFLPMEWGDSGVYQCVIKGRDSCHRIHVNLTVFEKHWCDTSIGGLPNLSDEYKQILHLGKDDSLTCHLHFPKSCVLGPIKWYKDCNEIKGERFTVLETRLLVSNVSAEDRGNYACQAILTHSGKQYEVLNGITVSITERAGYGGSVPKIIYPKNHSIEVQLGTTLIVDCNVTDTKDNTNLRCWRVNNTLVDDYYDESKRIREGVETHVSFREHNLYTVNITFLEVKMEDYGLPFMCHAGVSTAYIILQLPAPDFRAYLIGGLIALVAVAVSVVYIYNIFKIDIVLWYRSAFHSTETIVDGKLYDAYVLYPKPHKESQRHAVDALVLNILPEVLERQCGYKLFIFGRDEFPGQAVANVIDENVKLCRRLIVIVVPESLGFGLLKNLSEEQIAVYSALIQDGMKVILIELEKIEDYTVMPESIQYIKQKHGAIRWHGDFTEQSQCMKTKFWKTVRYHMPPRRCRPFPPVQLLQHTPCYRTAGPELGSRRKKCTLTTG
- test.method.notes: cell-based or functional assay
Friendly reminder: IC90, IL-8 release, NCI/ADR-RES cells, trun-IL-36a below 3 nM is t, at or above is f.

Example cases with answers are listed next.
[
  {
    "binder": "antibody 81A1 (antibody, V domains shown, Mouse monoclonal from hybridoma; also called 81A1D1; Mouse 81A1) VH: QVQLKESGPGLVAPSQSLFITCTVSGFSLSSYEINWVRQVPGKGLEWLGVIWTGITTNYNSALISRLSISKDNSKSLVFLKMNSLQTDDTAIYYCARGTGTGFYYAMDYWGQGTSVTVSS VL: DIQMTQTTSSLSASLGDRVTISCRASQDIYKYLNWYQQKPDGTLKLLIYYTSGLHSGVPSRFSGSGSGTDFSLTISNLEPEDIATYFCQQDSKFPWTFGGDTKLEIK",
    "class.name": "t"
  },
  {
    "binder": "antibody 78C8 (antibody, V domains shown, Mouse monoclonal from hybridoma; also called 78C8D1; Mouse 78C8) VH: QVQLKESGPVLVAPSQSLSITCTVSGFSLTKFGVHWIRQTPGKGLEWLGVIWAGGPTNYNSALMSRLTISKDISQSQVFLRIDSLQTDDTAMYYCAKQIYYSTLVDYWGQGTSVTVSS VL: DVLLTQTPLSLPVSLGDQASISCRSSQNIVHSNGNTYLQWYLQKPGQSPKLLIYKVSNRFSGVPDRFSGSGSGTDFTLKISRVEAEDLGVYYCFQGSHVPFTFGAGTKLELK",
    "class.name": "f"
  },
  {
    "binder": "antibody 73C5 (antibody, V domains shown, Mouse monoclonal from hybridoma; also called 73C5C10; Mouse 73C5) VH: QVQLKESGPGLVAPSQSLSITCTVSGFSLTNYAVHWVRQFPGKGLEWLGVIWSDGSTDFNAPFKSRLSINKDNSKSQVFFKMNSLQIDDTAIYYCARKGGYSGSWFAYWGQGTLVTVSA VL: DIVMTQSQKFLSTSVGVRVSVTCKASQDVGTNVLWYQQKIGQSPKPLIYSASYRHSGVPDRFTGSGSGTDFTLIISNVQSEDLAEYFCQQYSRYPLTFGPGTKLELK",
    "class.name": "f"
  },
  {
    "binder": "antibody 33D10 (antibody, V domains shown, Mouse monoclonal from hybridoma; also called 33D10B12; Mouse 33D10) VH: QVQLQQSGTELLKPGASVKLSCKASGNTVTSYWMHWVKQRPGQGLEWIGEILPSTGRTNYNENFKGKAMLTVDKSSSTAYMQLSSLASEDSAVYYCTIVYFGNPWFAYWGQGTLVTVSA VL: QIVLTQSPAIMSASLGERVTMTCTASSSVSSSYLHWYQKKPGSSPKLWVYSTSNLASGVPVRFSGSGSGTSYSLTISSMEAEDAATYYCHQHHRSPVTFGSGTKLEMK",
    "class.name": "t"
  },
  {
    "binder": "antibody 81B4 (antibody, V domains shown, Mouse monoclonal from hybridoma; also called 81B4E11; Mouse 81B4) VH: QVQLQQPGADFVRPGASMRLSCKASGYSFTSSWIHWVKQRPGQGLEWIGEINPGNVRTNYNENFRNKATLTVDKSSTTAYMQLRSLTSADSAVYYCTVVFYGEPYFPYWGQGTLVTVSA VL: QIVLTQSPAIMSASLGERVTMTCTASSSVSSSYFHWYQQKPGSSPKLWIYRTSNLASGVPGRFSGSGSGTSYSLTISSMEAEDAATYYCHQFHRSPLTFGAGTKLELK",
    "class.name": "t"
  }
]

Continue with the next binder.
Exercise: In the record for antibody 73F6 (antibody, V domains shown, Mouse monoclonal from hybridoma; also called 73F6F8; Mouse 73F6) VH: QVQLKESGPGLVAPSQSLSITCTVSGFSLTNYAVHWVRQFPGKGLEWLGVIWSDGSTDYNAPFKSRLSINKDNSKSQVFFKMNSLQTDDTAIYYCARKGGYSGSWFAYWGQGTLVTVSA VL: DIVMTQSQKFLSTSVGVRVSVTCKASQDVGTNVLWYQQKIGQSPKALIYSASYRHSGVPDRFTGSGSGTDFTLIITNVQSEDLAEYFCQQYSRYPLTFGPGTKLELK , is IC90, IL-8 release, NCI/ADR-RES cells, trun-IL-36a less than 3 nM?
Key: f
